Values were extracted from patent US20210040232A1.

Reported ratio of RLU signal to parental VI-fibroblast at 0.4 nM Ab values are given for each entry in this list.
biological target: T1, human CTLA-4 (amino acids M1-N223) on stably transfected VI-fibroblast cells (human, UniProt P16410 36-223); experiment: ECL cell binding, VI-fibroblast/hCTLA-4 cells;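 note: antibodies bound to the cells on carbon electrode plates, detected via SULFO-TAG anti-IgG secondary (1 h, RT), electrochemiluminescence read as RLU over a concentration range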
T1 construct: also called VI-fibroblast/hCTLA-4
T1 sequence (P16410 36-223 limits assumed): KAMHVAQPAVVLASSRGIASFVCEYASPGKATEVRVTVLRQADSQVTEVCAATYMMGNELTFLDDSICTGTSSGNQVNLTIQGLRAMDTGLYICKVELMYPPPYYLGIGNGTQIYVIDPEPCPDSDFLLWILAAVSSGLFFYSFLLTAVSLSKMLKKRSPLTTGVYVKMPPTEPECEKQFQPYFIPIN
Entry rule: numbers only, all in ratio.

Please review the entries below; each comes with its answer.
[
  {
    "BINDER": "H1H19274P (antibody, human IgG1, V domains shown) VH: QVQLQESGPGLVKPSETLSLTCTVSGGSINSYYWTWIRQPPGKGLEWIGYVYYSGSTTYNPSLKSRVTISVDTSKNQFFLNLNSVTAAETAVYYCARGTLGYYGMDVWGQGTTVTVSS VL: EIVLTQSPGTLSLSPGERATLSCRASQSFSNNYLAWYQQKPGQAPRLLIYGTSIRATGIPDRFSGSGSGTDFTLAISRLEPEDFAVYYCQQYGRSPLTFGGGTKVEIK",
    "OBSERVED_MEASUREMENT": 18
  },
  {
    "BINDER": "H1H19280P (antibody, human IgG1, V domains shown) VH: QLQLQESGPGLVKPSETLSLTCIVSGGSTSSNTYYWGWIRQPPGKGLEWIGTIHYSGNPYYDPSLKSRVTISVDTSKNHFSLKLNSVTAADTAVYYCTRQYINFFDFWGQGTLVTVSS VL: EIVLTQSPATLSLSPGERVTLSCRASQSISRYLAWYQQKPGQAPRVLIYDASNRATDIPARFSGSGSGTDFTLTISSLEPEDFAVYYCQQRSNWPITFGQGTRLEIK",
    "OBSERVED_MEASUREMENT": 15
  }
]

# context switch: different binder, same ratio of RLU signal to parental VI-fibroblast at 0.4 nM Ab
query: Suppose we examine the binder H1H19313P (antibody, human IgG1, V domains shown) VH: QITLKESGPTLVKPTQTLTLTCTFSGFSLSTSGVGVGWIRQPPGVALEWLALIYWNDDKRFSPSLKSRLTITKDTSKNQVVLTMTNMDPVDTATYYCAHRRLGLYYFDYWGQGTLVTVSS VL: DIQLTQSPSFLSASVGDRVTITCWASQGISSYLAWYQQKPGKAPKLLIYAASTLQSGVPSRFSGSGSGTEFTLTISSLQPEDFATYYCQQVHIYPFTFGPGTKVDIK ; what ratio of RLU signal to parental VI-fibroblast at 0.4 nM Ab value has been reported?
result: 11
